- Tested target: T1, bovine LHRH receptor (bovine, UniProt P32236 1-328)
- T1 construct: whole, on cells; The receptor stood in crude membrane preparations of bovine tissue homogenates, not on intact cells; also called GnRH receptor
- T1 sequence (looked up): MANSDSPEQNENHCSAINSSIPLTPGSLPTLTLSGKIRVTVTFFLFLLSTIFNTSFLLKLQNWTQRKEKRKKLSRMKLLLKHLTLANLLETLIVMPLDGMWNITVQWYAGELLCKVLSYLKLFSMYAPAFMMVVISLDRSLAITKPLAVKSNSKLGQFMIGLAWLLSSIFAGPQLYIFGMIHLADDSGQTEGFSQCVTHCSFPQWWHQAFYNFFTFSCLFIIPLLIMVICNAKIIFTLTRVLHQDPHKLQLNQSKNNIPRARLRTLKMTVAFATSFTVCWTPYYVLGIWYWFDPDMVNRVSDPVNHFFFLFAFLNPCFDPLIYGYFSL
- Protocol summary: displacement of 125I-deslorelin, bovine nasal MTA region membranes, low affinity site (IC50 II)
Reported endpoint: pIC50
A value of pIC50 is the negative decimal logarithm of a concentration given in moles per litre.

Quick check: pIC50 of EHWSYWLRP (pGlu at position 1; D-Trp at position 6; C-terminal ProNHEt (ethylamide), Synthetic LHRH analog, gift from Balance Pharmaceuticals; also called unlabelled deslorelin; unlabeled deslorelin) [deslorelin] ? 7.27
